Hello, the source for this data is paper PMC10397247, in case you need it.

- assayedSystem: T1, 4H428-AA
- T1 chain: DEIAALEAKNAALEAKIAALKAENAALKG
- measurementProtocol: two-hybrid library CCmax;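 note: natural log of median RNA to DNA barcode read ratio; higher means stronger binding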
- appliedConditions: mean of both orientations
recordedMetric: interaction score

Guide cases for interaction score, answers given:
DKNAALEAEIAALEAKNAALEAEIAALEG [4H3121-AA]    -0.865
DKIAALKAENAALEAENAALKAEIAALEG [4H2713-AA]    -1.87
DEIAALEAKNAALEAEIAALEAKNAALEG [4H391-AA]    -0.212
DKIAALEAENAALKAEIAALEAKNAALKG [4H2248-AA]    -0.478

(a) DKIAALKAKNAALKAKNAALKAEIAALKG [4H3066-AA]
(b) DKNAALKAEIAALEAKIAALKAENAALKG [4H3628-AA]
[ask] Quick check, higher interaction score between a and b ? Refer to your chosen item by its label in the answer.
[reply] b
